Each recorded value in this set is attributed to ChEMBL document CHEMBL3091324.

ASSAY_TEXT: Intrinsic clearance in rat liver microsomes
Format: ADME
CONDITION_DETAILS: read-out: CLH
Can you tell me microsomal CLint for the items I'm about to list?
One number for each entry, in µL/min/mg.

c1cncc(CNc2nnc(-c3c[nH]c4ncccc34)o2)c1; 30

Kindly give each listed record's microsomal CLint.
1. Fc1cnc2[nH]cc(-c3nnc(N[C@@H](c4cccnc4F)C4CC4)o3)c2c1
2. c1cnc2[nH]cc(-c3nnc(NCc4ccncc4)o3)c2c1
3. Nc1n[nH]c2ccc(-c3nnc(NCc4ccccc4)o3)cc12

20
37
74

###

Can you tell me log10(microsomal CLint) for the items I'm about to list?
ASSAY_TEXT: Intrinsic clearance in rat liver microsomes
Assay type: ADME
CONDITION_DETAILS: read-out: CLH
Scale: log10; quantity: microsomal CLint; unit before log: µL/min/mg

c1ccc(CNc2nnc(-c3nc4ccncc4s3)o2)cc1; 1.82
CC[C@@H](Nc1nnc(-c2c[nH]c3ncccc23)o1)c1ccccc1; 1.46
Fc1cccc(CNc2nnc(-c3c[nH]c4ncccc34)o2)c1; 1.85
c1ccc(CNc2nnc(-c3ccc4[nH]ncc4c3)o2)cc1; 2.60
Fc1cc2cc(-c3nnc(NCc4ccccc4)o3)ccc2cn1; 1.75
C[C@H](Nc1nnc(-c2c[nH]c3ncccc23)o1)c1ccccc1; 1.23
Fc1ccccc1[C@H](Nc1nnc(-c2c[nH]c3ncccc23)o1)C1CC1; 1.80
O=c1[nH]c2ccc(-c3nnc(NCc4ccccc4)o3)cc2o1; 1.48

Kindly give each listed record's log10(microsomal CLint).
1. c1ccc(CNc2nnc(-c3c[nH]c4ncccc34)o2)nc1
2. C[C@@H](Nc1nnc(-c2c[nH]c3ncccc23)o1)c1ccccc1

[1.15, 1.40]

Per the record, `c1ccc([C@H](Nc2nnc(-c3c[nH]c4ncccc34)o2)C2CC2)cc1` has log10(microsomal CLint) of 1.49

###

TESTED_ON: Cell division cycle 7-related protein kinase (Homo sapiens, UniProt O00311)
Sequence (O00311 whole entry): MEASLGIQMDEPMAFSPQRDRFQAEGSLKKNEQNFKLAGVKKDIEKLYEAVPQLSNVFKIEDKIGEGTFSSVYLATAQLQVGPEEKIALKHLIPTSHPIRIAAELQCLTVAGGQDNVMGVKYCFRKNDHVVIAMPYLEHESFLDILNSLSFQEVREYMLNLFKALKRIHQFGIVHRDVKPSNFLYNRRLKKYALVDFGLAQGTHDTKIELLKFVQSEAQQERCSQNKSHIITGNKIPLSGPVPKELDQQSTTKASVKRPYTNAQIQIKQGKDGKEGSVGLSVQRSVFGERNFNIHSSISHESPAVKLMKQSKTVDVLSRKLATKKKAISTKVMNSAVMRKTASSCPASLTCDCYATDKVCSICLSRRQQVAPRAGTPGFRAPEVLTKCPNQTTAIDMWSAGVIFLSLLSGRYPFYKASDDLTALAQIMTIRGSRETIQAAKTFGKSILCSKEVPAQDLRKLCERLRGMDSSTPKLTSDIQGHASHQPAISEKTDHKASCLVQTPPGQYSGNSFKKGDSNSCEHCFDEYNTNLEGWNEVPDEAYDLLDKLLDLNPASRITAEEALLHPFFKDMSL
ASSAY_TEXT: Inhibition of Cdc7-mediated MCM2 phosphorylation at Ser53 in human HCT116 cells after 14 hrs by immunostaining assay
PROPERTY_LABEL: IC50 (nM)
Answers are plain numbers, in nM.

The following compounds have reported results that may help.
Fc1ccccc1[C@H](Nc1nnc(-c2c[nH]c3ncncc23)o1)C1CC1; 130
Fc1cnc2[nH]cc(-c3nnc(N[C@@H](c4cccnc4F)C4CC4)o3)c2c1; 32

Kindly give each listed record's IC50.
1. Fc1ccc(CNc2nnc(-c3c[nH]c4ncccc34)o2)cc1
2. c1ccc([C@H](Nc2nnc(-c3c[nH]c4ncccc34)o2)C2CC2)cc1
3. c1ccc(CNc2nnc(-c3ccc4[nH]ncc4c3)o2)cc1

[690, 71, 730]

Kindly give each listed record's IC50.
1. Fc1cc2cc(-c3nnc(NCc4ccccc4)o3)ccc2cn1
2. c1ccc(CNc2nnc(-c3c[nH]c4ncccc34)o2)nc1
3. c1ccc(CNc2nnc(-c3ccc4cnccc4c3)o2)cc1
4. c1ccc(CNc2nnc(-c3c[nH]c4ncccc34)o2)cc1
5. Fc1ncccc1[C@H](Nc1nnc(-c2c[nH]c3ncccc23)o1)C1CC1
6. C[C@@H](Nc1nnc(-c2c[nH]c3ncccc23)o1)c1ccccc1
7. CC(C)[C@@H](Nc1nnc(-c2c[nH]c3ncccc23)o1)c1ccccc1

1: 3200; 2: 13000; 3: 710; 4: 780; 5: 51; 6: 370; 7: 140

Kindly give each listed record's IC50.
1. Nc1n[nH]c2ccc(-c3nnc(NCc4ccccc4)o3)cc12
2. Fc1cccc(CNc2nnc(-c3c[nH]c4ncccc34)o2)c1
3. CC[C@@H](Nc1nnc(-c2c[nH]c3ncccc23)o1)c1ccccc1
4. C[C@H](Nc1nnc(-c2c[nH]c3ncccc23)o1)c1ccccc1

1200
580
150
2600

###

ASSAY_TEXT: Volume of distribution at steady state in rat at 2 mg/kg, iv
Type: ADME, organism-based
Design: dose 2 mg/kg, route intravenous
CONDITION_DETAILS: in vivo, read-out: Vdss
PROPERTY_LABEL: Vd

Per the record, `c1ccc(CNc2nnc(-c3ccc4cnccc4c3)o2)cc1` has Vd of 4.3 L/kg

###

ASSAY_TEXT: Mean residence time in rat at 2 mg/kg, iv and 5 mg/kg, po
Assay type: ADME, organism-based
CONDITION_DETAILS: in vivo
PROPERTY_LABEL: MRT (h)
Give bare numbers, in h.

Per the record, `Fc1ccccc1[C@H](Nc1nnc(-c2c[nH]c3ncccc23)o1)C1CC1` has MRT of 2.7

###

ASSAY_TEXT: Intrinsic clearance in human liver microsomes
Format: ADME
CONDITION_DETAILS: read-out: CLH
Can you tell me microsomal CLint for the items I'm about to list?
Answers are plain numbers, in µL/min/mg.

c1ccc(CNc2nnc(-c3c[nH]c4ncccc34)o2)cc1; 31
Fc1ncccc1[C@H](Nc1nnc(-c2c[nH]c3ncccc23)o1)C1CC1; 21
c1ccc(CNc2nnc(-c3nc4ccncc4s3)o2)cc1; 23
C[C@H](Nc1nnc(-c2c[nH]c3ncccc23)o1)c1ccccc1; 15

Attention now turns to another entry.
Per the record, `C[C@@H](Nc1nnc(-c2c[nH]c3ncccc23)o1)c1ccccc1` has microsomal CLint of 64

###

Can you tell me microsomal CLint for the items I'm about to list?
ASSAY_TEXT: Intrinsic clearance in human liver microsomes
Type: ADME
CONDITION_DETAILS: read-out: CLH
Numbers only, in µL/min/mg.

The following molecules have reported results that may help.
Fc1ccccc1[C@H](Nc1nnc(-c2c[nH]c3ncccc23)o1)C1CC1; 59
c1ccc([C@H](Nc2nnc(-c3c[nH]c4ncccc34)o2)C2CC2)cc1; 56
Nc1n[nH]c2ccc(-c3nnc(NCc4ccccc4)o3)cc12; 26
CC(C)(Nc1nnc(-c2c[nH]c3ncccc23)o1)c1ccccc1; 30

Kindly give each listed record's microsomal CLint.
1. c1ccc(CNc2nnc(-c3ccc4cnccc4c3)o2)cc1
2. Fc1cccc(CNc2nnc(-c3c[nH]c4ncccc34)o2)c1
3. O=c1[nH]c2ccc(-c3nnc(NCc4ccccc4)o3)cc2o1
4. c1ccc(CNc2nnc(-c3ccc4[nH]ncc4c3)o2)cc1

1. 120
2. 54
3. 69
4. 98

###

ASSAY_TEXT: Volume of distribution at steady state in rat at 2 mg/kg, iv and 2 mg/kg, po
Assay type: ADME, organism-based
CONDITION_DETAILS: in vivo, read-out: Vdss
PROPERTY_LABEL: Vd (L/kg)
Give bare numbers, in L/kg.

Per the record, `Fc1cnccc1[C@H](Nc1nnc(-c2c[nH]c3ncccc23)o1)C1CC1` has Vd of 6.1

###

Organism: Homo sapiens
ASSAY_TEXT: Selectivity ratio of IC50 for CDK2/cyclin E (unknown origin) to IC50 for Cdc7/Dbf4 (unknown origin)
Can you tell me Ratio IC50 for the items I'm about to list?
One number for each entry.

The following compounds have reported results that may help.
Fc1ccccc1CNc1nnc(-c2c[nH]c3ncccc23)o1; 17
c1ccc(CNc2nnc(-c3c[nH]c4ncccc34)o2)cc1; 6
Fc1cccc(CNc2nnc(-c3c[nH]c4ncccc34)o2)c1; 6

Attention now turns to another entry.
Per the record, `Fc1ccc(CNc2nnc(-c3c[nH]c4ncccc34)o2)cc1` has Ratio IC50 of 4

###

TESTED_ON: Cyclin-dependent kinase 2/cyclin E1 (Homo sapiens)
ASSAY_TEXT: Inhibition of CDK2/cyclin E (unknown origin) using ULight peptide as substrate by HTRF assay
PROPERTY_LABEL: pIC50
Answers are plain numbers, as −log10 of the molar value.

The following compounds have reported results that may help.
CC(C)(Nc1nnc(-c2c[nH]c3ncccc23)o1)c1ccccc1; 8.15
Fc1ncccc1[C@H](Nc1nnc(-c2c[nH]c3ncccc23)o1)C1CC1; 6.31
Fc1ccccc1CNc1nnc(-c2c[nH]c3ncccc23)o1; 6.24
Fc1cc2cc(-c3nnc(NCc4ccccc4)o3)ccc2cn1; 5.17
O=C1Cc2cc(-c3nnc(NCc4ccccc4)o3)ccc2N1; 4.48
c1ccc(CNc2nnc(-c3nc4ccncc4s3)o2)cc1; 4.72

Kindly give each listed record's pIC50.
1. Fc1cnc2[nH]cc(-c3nnc(N[C@@H](c4cccnc4F)C4CC4)o3)c2c1
2. c1ccc([C@H](Nc2nnc(-c3c[nH]c4ncccc34)o2)C2CC2)cc1
3. c1ccc(CNc2nnc(-c3c[nH]c4ncccc34)o2)cc1
4. c1ccc(CNc2nnc(-c3c[nH]c4ncccc34)o2)nc1
5. CC[C@@H](Nc1nnc(-c2c[nH]c3ncccc23)o1)c1ccccc1
6. Fc1cccc(CNc2nnc(-c3c[nH]c4ncccc34)o2)c1
7. CC(C)[C@@H](Nc1nnc(-c2c[nH]c3ncccc23)o1)c1ccccc1

1. 6.17
2. 5.80
3. 6.82
4. 5.60
5. 5.77
6. 7.21
7. 5.92

###

Can you tell me solubility for the items I'm about to list?
ASSAY_TEXT: Solubility of the compound in simulated intestinal fluid
Format: ADME

The following compounds have reported results that may help.
Fc1cnccc1[C@H](Nc1nnc(-c2c[nH]c3ncccc23)o1)C1CC1; 200 µg/mL
Fc1ccccc1[C@H](Nc1nnc(-c2c[nH]c3ncccc23)o1)C1CC1; 5 µg/mL

Kindly give each listed record's solubility.
1. Fc1cnc2[nH]cc(-c3nnc(N[C@@H](c4cccnc4F)C4CC4)o3)c2c1
2. Fc1ncccc1[C@H](Nc1nnc(-c2c[nH]c3ncccc23)o1)C1CC1

["160 µg/mL", "200 µg/mL"]
